System: MKNK2
Details: concentration: 1 μM,replicates: in singlicate; n = 1;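 note: KINOMEscan kinase panel screen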
%Inh values for the compounds below.

structure.smiles.string: C[C@@H]1CCN(C(=O)CC#N)C[C@@H]1N(C)c1ncnc2[nH]ccc12
%Inh: 0%
--
structure.smiles.string: NC(=O)c1cc(-c2ccccc2)cc2c(C3CCNCC3)c[nH]c12
%Inh: 13%
--
structure.smiles.string: C=CC(=O)Nc1cc2c(Nc3ccc(F)c(Cl)c3)ncnc2cc1OCCCN1CCOCC1
%Inh: 76%
--
structure.smiles.string: CN(C)CCOc1ccc(-c2cc(-c3c[nH]nc3-c3ccccn3)ccn2)cc1
%Inh: 13%
--
structure.smiles.string: Cc1ccc2c(-c3ccncc3)c(-c3ccc(F)cc3)nn2c1.Cl
%Inh: 37%
--
structure.smiles.string: CNC(=O)c1ccccc1Sc1ccc2c(/C=C/c3ccccn3)n[nH]c2c1
%Inh: 0%

###

Test system: MERTK
Details: concentration: 1 μM,replicates: in singlicate; n = 1
measurement.type: %Inh (%)

structure.smiles.string: C[C@H]1Oc2cc(cnc2N)-c2c(nn(C)c2C#N)CN(C)C(=O)c2ccc(F)cc21
measurement.type: %Inh
result.number: 20
//
structure.smiles.string: C[C@@H]1CCN(C(=O)CC#N)C[C@@H]1N(C)c1ncnc2[nH]ccc12
measurement.type: %Inh
result.number: 0
//
structure.smiles.string: Cl.Cl.NC[C@H](Cc1ccc(C(F)(F)F)cc1)NC(=O)c1cc(Br)c(-c2ccnc3[nH]ccc23)s1
measurement.type: %Inh
result.number: 59
//
structure.smiles.string: C=CC(=O)Nc1cc2c(Nc3ccc(F)c(Cl)c3)ncnc2cc1OCCCN1CCOCC1
measurement.type: %Inh
result.number: 0

###

System: MST3
Construct: gene STK24
Settings: concentration: 1 μM,replicates: in singlicate; n = 1

structure.smiles.string: O=C(NCCCN1CCOC1=O)c1cnc(NCc2cc(Cl)ccc2Cl)nc1NC1CCCC1
%Inh [%]: 14
//
structure.smiles.string: Cc1ccc2c(-c3ccncc3)c(-c3ccc(F)cc3)nn2c1.Cl
%Inh [%]: 2
//
structure.smiles.string: Cl.Cl.NC[C@H](Cc1ccc(C(F)(F)F)cc1)NC(=O)c1cc(Br)c(-c2ccnc3[nH]ccc23)s1
%Inh [%]: 13
//
structure.smiles.string: CC(C)N1C(=O)Cc2cc(Nc3ncc(C(F)(F)F)c(NCc4cccc(S(C)(=O)=O)c4)n3)ccc21
%Inh [%]: 23

###

Listing of entries alongside the reported %Inh.
Tested on: EPHA1
Settings: concentration: 1 μM,replicates: in singlicate; n = 1

compound: Cl.Cl.NC[C@H](Cc1ccc(C(F)(F)F)cc1)NC(=O)c1cc(Br)c(-c2ccnc3[nH]ccc23)s1 [GSK1487252]
target.system: EPHA1
%Inh: 26%
//
compound: C=CC(=O)Nc1cc2c(Nc3ccc(F)c(Cl)c3)ncnc2cc1OCCCN1CCOCC1 [GW781483]
target.system: EPHA1
%Inh: 25%
//
compound: Cl.Oc1cc(-c2nc(-c3ccccc3)[nH]c2-c2ccncc2)ccc1Cl [SB-386023]
target.system: EPHA1
%Inh: 59%

###

System: PRKG1
Conditions: concentration: 1 μM,replicates: in singlicate; n = 1
measurement.type: %Inh (%)

compound: C[C@@H]1CCN(C(=O)CC#N)C[C@@H]1N(C)c1ncnc2[nH]ccc12
unit.spec: %
result.number: 14

compound: Cl.Cl.NC[C@H](CC1CCCCC1)NC(=O)c1cc(Br)c(-c2ccnc3[nH]ccc23)s1 [GSK1581427]
unit.spec: %
result.number: 99.3

compound: Cc1n[nH]c2ccc(-c3cc(OC[C@@H](N)Cc4ccccc4)cnc3-c3ccoc3)cc12.O=C(O)C(F)(F)F.O=C(O)C(F)(F)F [GSK507358]
unit.spec: %
result.number: 0

compound: COc1ccc(C[C@@H](CN)NC(=O)c2cc(Br)c(-c3ccnc4[nH]ccc34)s2)cc1.Cl.Cl [GSK1389063]
unit.spec: %
result.number: 98.7

compound: Cc1cc2cn[nH]c2cc1-c1cccc2c(N)c(C(N)=O)nnc12
unit.spec: %
result.number: 0

compound: Cl.Oc1cc(-c2nc(-c3ccccc3)[nH]c2-c2ccncc2)ccc1Cl [SB-386023]
unit.spec: %
result.number: 15

compound: O=C(NCCCN1CCOC1=O)c1cnc(NCc2cc(Cl)ccc2Cl)nc1NC1CCCC1
unit.spec: %
result.number: 13

compound: CN(C)CC(O)COc1ccc(Nc2nccc(-c3cnn4nc(N5CCOCC5)ccc34)n2)cc1 (centres unmarked) [GW767488]
unit.spec: %
result.number: 0
